Assay: chemical genetic growth profiling, strain panel (AID 1159580);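 further: tested at 20 µM; growth read once vehicle control cultures reached saturation at 30 °C; 1 = growth at the plate median or of vehicle wells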
Conditions: S. cerevisiae deletion strains, growth OD, locus YNL153C, strain GIM3
The campaign covered roughly 5,500 compounds. About 2,000 (36%) were called active. Inconclusive results (about 18%) are left out. No stated cut-off is given here; in the data, active means normalized growth mostly below about 0.91 (no sharp cut-off); inconclusive means no clear call, values can overlap the other calls; inactive means mostly above about 0.92. The list shows a part of the results.
Outcomes you can answer with include only these: Y = active, N = inactive

Study these solved cases before continuing.
- COMPOUND: "NCCCCN=C(N)N"
  ASSIGNED_CLASS: "N"
- COMPOUND: "CC(N)(Cc1ccc(O)c(O)c1)C(=O)O (stereo not drawn)"
  ASSIGNED_CLASS: "N"
- COMPOUND: "C[C@@]12C(=O)OC(=O)[C@]1(C)C1CCC2O1"
  ASSIGNED_CLASS: "Y"
- COMPOUND: "O=C1CNC(=S)N1CCc1ccccn1"
  ASSIGNED_CLASS: "N"
- COMPOUND: "CC[C@@]1(C2O[C@@H](C3O[C@@](O)(CC)[C@H](C)C[C@@H]3C)C[C@@H]2C)CC[C@H]([C@]2(C)CCC3(C[C@H](O)[C@@H](C)[C@@H]([C@H](C)[C@@H](OC)[C@H](C)C(=O)O)O3)O2)O1 (stereo partly drawn)"
  ASSIGNED_CLASS: "N"

Problem: Lab log entry: CCOc1ccc2c(c1)C(C)=CC(C)(C)N2 — outcome as called in the assay?
Solution: N

Problem: Record lookup: outcome of this test for CCOC(=O)C1=CC2(CC)CCCN3CCc4c(n1c1ccccc41)C32 (stereo not drawn) ?
Solution: N

Problem: Which outcome was assigned to CC(C)(C)c1nc(N)sc1Br in this test?
Solution: N

Problem: Look up the recorded call for CCOC(=O)c1c(C)n(-c2ccccc2)c2ccc(O)cc12 in this test.
Solution: N

Problem: // param item: COC(=O)[C@H]1[C@H]2C[C@@H]3c4[nH]c5cc(OC)ccc5c4CCN3C[C@H]2C[C@@H](OC(=O)c2cc(OC)c(OC)c(OC)c2)[C@@H]1OC ; yields the recorded call
Solution: N

Problem: How was BrC12CC3CC(CC(C3)C1)C2 classified in this test?
Solution: N

Problem: How was c1ccc(CSC2=NCCCN2)cc1 classified in this test?
Solution: N

Problem: Could you kindly confirm the outcome this assay logged for COc1ccccc1N1CCN(Cc2ccc(F)cc2)CC1 ?
Solution: N

Problem: I'd appreciate the recorded outcome for CC1=C(/C=C/C(C)=C/C=C/C(C)=C\C(=O)O)C(C)(C)CCC1 from this test.
Solution: N

---

Some compounds, each annotated with its measured normalized growth.
Experiment: chemical genetic growth profiling, strain panel (AID 1159580);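 further: tested at 20 µM; growth read once vehicle control cultures reached saturation at 30 °C; 1 = growth at the plate median or of vehicle wells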
Details: S. cerevisiae deletion strains, growth OD, locus YJL154C, strain vps35, stronger effect = lower value
Screen size: about 5,500 compounds; about 2,000 (36%) were called active. About 18% were inconclusive and are not listed. The list shows a part of the results.

Known results for compounds:
- COMPOUND: "CCn1cc(C(=O)O)c(=O)c2cc3c(cc21)OCO3"
  TEST_READOUT: "normalized growth"
  RESULT: "0.969 (inactive)"
- COMPOUND: "c1ccc2[nH]c(-c3cscn3)nc2c1"
  TEST_READOUT: "normalized growth"
  RESULT: "1.01 (inactive)"
- COMPOUND: "O=C1CN(/N=C\\c2ccc([N+](=O)[O-])o2)C(=O)N1"
  TEST_READOUT: "normalized growth"
  RESULT: "0.971 (inactive)"
- COMPOUND: "COS(C)(=O)=O"
  TEST_READOUT: "normalized growth"
  RESULT: "0.988 (inactive)"

Problem: Given the compound CC12CCCC(O)(C1)C1CC(C)(C)C1CC2 (stereo unspecified) , what is its reported normalized growth?
Solution: 1.01 (inactive)

Problem: # input compound: CC[C@@]1(C2O[C@@H](C3O[C@@](O)(CC)[C@H](C)C[C@@H]3C)C[C@@H]2C)CC[C@H]([C@]2(C)CCC3(C[C@H](O)[C@@H](C)[C@@H]([C@H](C)[C@@H](OC)[C@H](C)C(=O)O)O3)O2)O1 (stereo partly specified) ; wanted: its normalized growth
Solution: 0.963 (inactive)

Problem: What measured normalized growth goes with S=c1[nH]c2ccccc2s1 ?
Solution: 0.983 (inactive)

Problem: Given the entry c1ccc(-c2ccc(C(c3ccccc3)n3ccnc3)cc2)cc1 (stereo unspecified) , report its measured normalized growth.
Solution: 0.0754 (active)

Problem: Query (compound): C=CC1=C(C)/C(=C/c2[nH]c(Cc3[nH]c(/C=C4\NC(=O)C(C)=C4C=C)c(C)c3CCC(=O)O)c(CCC(=O)O)c2C)NC1=O ; field requested: normalized growth
Solution: 0.982 (inactive)

Problem: Any idea what normalized growth was measured for C[C@@H]1CC2C3CCC4=CC(=O)C=C[C@]4(C)[C@@]3(F)[C@@H](O)C[C@]2(C)[C@@]1(O)C(=O)COP(=O)(O)O (stereo partly specified) ?
Solution: 0.952 (inactive)

Problem: Bench note: what normalized growth did O=C1N=C(O)CN1/N=C\c1ccc(-c2ccc([N+](=O)[O-])cc2)o1 show?
Solution: 0.968 (inactive)

Problem: Which measured normalized growth value corresponds to CC1(C)C2CC(=O)O[C@@]3(C)C4=CC(=O)O[C@@H](c5ccoc5)[C@]4(C)CCC3[C@@]2(C)C=C[C@H]1O (stereo partly specified) ?
Solution: 0.99 (inactive)

Problem: Need normalized growth of CC1=C(/C=C/C(C)=C/C=C/C(C)=C/C=C/C=C(C)/C=C/C=C(C)/C=C/C2=C(C)CCCC2(C)C)C(C)(C)CCC1 , thanks.
Solution: 0.999 (inactive)

Problem: Quick check: normalized growth of O=C(O)c1cc(=O)c(O)c2c(O)c(O)c(O)cc2c1 ?
Solution: 0.768 (active)

Problem: Would you mind telling me what normalized growth value was observed for O=C(/C=C/c1ccc(O)c(O)c1)O[C@@H]1C[C@](O)(C(=O)O)C[C@@H](O)[C@H]1O ?
Solution: 0.976 (inactive)

Problem: Which measured normalized growth value corresponds to CC1=C(/C=C/C(C)=C/C=C/C(C)=C/C(=O)O)C(C)(C)CCC1 ?
Solution: 1.02 (inactive)

Problem: Given the compound O=C(NC(Cc1cc(=O)[nH]c2ccccc12)C(=O)O)c1ccc(Cl)cc1 (stereo unspecified) , what is its reported normalized growth?
Solution: 1 (inactive)

Problem: Data request, read-out normalized growth, for NC(=O)N/N=C\c1ccc([N+](=O)[O-])o1
Solution: 0.992 (inactive)

Problem: Please report the recorded normalized growth for CCN(CC)CCOC(=O)C(Cc1cccc2ccccc12)CC1CCCO1 (stereo unspecified) .
Solution: 1.01 (inactive)

Problem: May I ask what normalized growth has been recorded for COc1ccc(/C=C/c2cc(O)cc(O)c2)cc1 ?
Solution: 1.01 (inactive)

Problem: Name the recorded normalized growth for O=C(O)c1cc(=O)c(O)c2c(O)c(O)ccc2c1 .
Solution: 1 (inactive)
